All values here come from patent US9127027B2.

# Study target: Human recombinant sEH (Homo sapiens (Human), UniProt P34913)
# Sequence (P34913 whole entry): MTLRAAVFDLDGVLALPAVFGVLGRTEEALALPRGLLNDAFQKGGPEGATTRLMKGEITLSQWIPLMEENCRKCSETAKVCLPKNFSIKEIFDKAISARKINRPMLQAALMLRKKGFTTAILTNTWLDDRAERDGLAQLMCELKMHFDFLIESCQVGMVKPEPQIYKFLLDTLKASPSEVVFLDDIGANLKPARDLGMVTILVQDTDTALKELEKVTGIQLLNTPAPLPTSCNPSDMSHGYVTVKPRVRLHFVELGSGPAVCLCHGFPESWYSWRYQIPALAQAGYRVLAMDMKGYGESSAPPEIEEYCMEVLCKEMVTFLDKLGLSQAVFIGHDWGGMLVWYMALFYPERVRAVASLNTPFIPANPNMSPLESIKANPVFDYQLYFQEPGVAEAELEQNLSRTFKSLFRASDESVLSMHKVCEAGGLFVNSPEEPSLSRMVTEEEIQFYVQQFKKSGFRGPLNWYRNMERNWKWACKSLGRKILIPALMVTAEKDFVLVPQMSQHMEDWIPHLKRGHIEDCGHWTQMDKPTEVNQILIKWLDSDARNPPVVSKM
# Method summary: Soluble epoxide hydrolase inhibition (PHOME fluorescent substrate)
# Type: biochemical
# Experimental context: Table 1 head prints μM (Table 2 prints nM for same numbers); read-out: sEHi IC50
# Experimental: Compounds were tested for their ability to inhibit recombinant soluble epoxide hydrolase (sEH) protein. The assay utilizes (3-Phhenyl-oxiranyl)-acetic acid cyano-(6-methoxy-naphthalen-2-yl)-methyl ester (PHOME), a sensitive substrate for sEH that can be used to monitor the activity of both human and murine enzymes. […] Human recombinant sEH was incubated with substrate and compounds ranging in concentration from 0.1 to 1000 nM.
Reported endpoint: IC50 (µM)

The cases that follow already have their IC50 on record.
CCCCCNC(=O)NCCCC/C=C\CCCCCCCc1nnn[nH]1 ... 0.032
CCCCCNC(=O)NCCCC/C=C\CCCCCCc1nsc(=O)[nH]1 ... 0.231

(A) CCCCCNC(=O)NCCCC/C=C\CCCCC[S+]([O-])c1ncn[nH]1 (stereo not drawn)
(B) CCCCCNC(=O)NCCCC/C=C\CCCCOCC(=O)O
(C) CCCCCNC(=O)NCCCC/C=C\CCCCCNS(=O)(=O)c1ccccc1
(D) CCCCCNC(=O)NCCCC/C=C\CCCCCCc1noc(=O)[nH]1
(E) CCCCCNC(=O)NCCCC/C=C\CCCCCCC1=NOS(=O)N1 (stereo not drawn)
Q) Could you please sort these 5 entries by IC50 from high to low? Put the labels in the requested order and list them out.
A) B, A, D, C, E

----------
# Tested on: Spontaneously Hypertensive Rats (SHR)
# Method summary: Telemetry blood pressure and heart rate in spontaneously hypertensive rats
# Type: in vivo, rat
# Experimental context: 2 mg/d i.p. osmotic pump, vehicle 141±3.0
Reported endpoint: blood pressure after two weeks of treatment (mmHg)
Just the number in mmHg, nothing appended.

The cases that follow already have their blood pressure after two weeks of treatment on record.
CCCCCNC(=O)NCCCC/C=C\CCCCCCc1nnn[nH]1 ... 137
CCCCCNC(=O)NCCCC/C=C\CCCCCCC(=O)N[C@@H](CC(=O)O)C(=O)O (stereo in doubt) ... 131
CCCCCCC(=O)N(CCCCCOc1cccc2sc(NC(C)=O)nc12)C(C)C ... 129

Q) I'd like to know its blood pressure after two weeks of treatment. The compound in question is CCCCCCC(=O)N(CCCC/C=C\CCCCCCC1=NOS(=O)N1)C(C)C (stereo not shown)
A) 150

----------
# Tested on: bovine coronary artery
# Method summary: Vasorelaxant activity in bovine coronary artery rings precontracted with U-46619
# Format: cell-based
# Experimental context: Bos taurus; bovine coronary artery; read-out: Vascular Relax. EC50
pEC50: −log10 of the molar value.
Reported endpoint: pEC50

The cases that follow already have their pEC50 on record.
CCCCCCC(=O)N(CCCC/C=C\CCCCCCC1=NOS(=O)N1)C(C)C (centres unmarked) [Compound 26] ... 6.49
CCCCNC(=O)C(=O)NCCCC/C=C\CCCCCCC1=NOS(=O)N1 (centres unmarked) [Compound 27] ... 6.44

(1) CCCCCNC(=O)NCCCC/C=C\CCCCCCC(=O)NS(C)(=O)=O [Compound 9]
(2) CCCCCCC(=O)N(CCCC/C=C\CCCCCCc1nnn[nH]1)C(C)C [Compound 19]
Q) Pick one: 1 or 2 . Which one has the lower reported pEC50? Label of pick, please.
A) 1
(1: 5.17, 2: 6.00)
